measured_on: human kinase Mps-1 (Homo sapiens)
Construct: N-terminally GST-tagged human full length recombinant Mps-1 kinase
Sequence (P33981 whole entry): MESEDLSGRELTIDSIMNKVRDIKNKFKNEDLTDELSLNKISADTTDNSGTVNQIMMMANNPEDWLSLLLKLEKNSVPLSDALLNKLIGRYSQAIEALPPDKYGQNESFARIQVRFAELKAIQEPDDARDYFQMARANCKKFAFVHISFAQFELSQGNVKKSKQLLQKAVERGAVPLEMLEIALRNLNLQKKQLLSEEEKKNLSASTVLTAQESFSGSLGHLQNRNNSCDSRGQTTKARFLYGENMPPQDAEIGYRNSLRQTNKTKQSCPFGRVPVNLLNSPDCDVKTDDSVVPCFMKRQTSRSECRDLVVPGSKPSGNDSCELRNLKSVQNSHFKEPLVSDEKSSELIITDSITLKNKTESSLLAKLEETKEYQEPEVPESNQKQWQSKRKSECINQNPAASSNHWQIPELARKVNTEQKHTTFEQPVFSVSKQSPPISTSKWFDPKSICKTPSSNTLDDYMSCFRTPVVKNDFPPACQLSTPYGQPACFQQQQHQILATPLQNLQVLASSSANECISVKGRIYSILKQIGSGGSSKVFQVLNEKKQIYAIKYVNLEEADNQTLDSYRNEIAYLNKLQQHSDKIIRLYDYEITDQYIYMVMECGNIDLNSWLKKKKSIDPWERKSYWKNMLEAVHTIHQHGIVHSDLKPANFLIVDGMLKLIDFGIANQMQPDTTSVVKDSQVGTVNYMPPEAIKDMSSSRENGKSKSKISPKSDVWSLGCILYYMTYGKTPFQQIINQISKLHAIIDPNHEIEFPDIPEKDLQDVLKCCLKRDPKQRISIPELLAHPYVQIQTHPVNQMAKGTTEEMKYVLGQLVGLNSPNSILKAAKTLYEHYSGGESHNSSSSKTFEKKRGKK
assay_info: Mps-1 kinase assay (HTRF)
condition: lowATP; mean; read-out: Mps1 lowATP mean IC50
Experimental: The human kinase Mps-1 phosphorylates a biotinylated substrate peptide. Detection of the phosphorylated product is achieved by homogenous time-resolved fluorescence resonance energy transfer (HTRF) from Europium-labelled anti-phospho-Serine/Threonine antibody as donor to streptavidin labelled with cross-linked allophycocyanin (SA-XLent) as acceptor. Compounds are tested for their inhibition of the kinase activity. […]
I'd be grateful if you could share measured IC50 for these entries.
Answers are plain numbers, in nM.

Below: 5 molecules and their reported IC50.
chemical_string: O=C(NC1CC1)c1ccc(-c2cnc3c(NCc4cccc(F)c4)nc4cc(F)c(F)cc4n23)cc1
IC50 / nM: 143
--
chemical_string: CC(C)(C)OC(=O)NCCCNc1nc2cc(F)c(F)cc2n2c(-c3ccc(C(=O)NC4CC4)c(Cl)c3)cnc12
IC50 / nM: 3410
--
chemical_string: O=C(NC1CC1)c1ccc(-c2cnc3c(NCc4ccc(F)cc4)nc4cc(F)c(F)cc4n23)cc1
IC50 / nM: 75.8
--
chemical_string: CNC(=O)c1ccc(-c2cnc3c(NCC(C)C)nc4ccccc4n23)cc1
IC50 / nM: 192
--
chemical_string: Cc1cc2nc(NCc3cnn(C)c3)c3ncc(-c4ccc(C(=O)NC5CC5)c(Cl)c4)n3c2cc1C
IC50 / nM: 67.6

Please state IC50 for every molecule in the list that follows.
1. CCCNc1nc2cc(C)c(C)cc2n2c(-c3ccc(NC(=O)NC)cc3)cnc12
2. O=C(NC1CC1)c1ccc(-c2cnc3c(NCCCO)nc4ccc(F)cc4n23)cc1

[163, 154]

IC50 recorded for this molecule, N#Cc1ccc2c(c1)nc(NCc1cccnc1)c1ncc(-c3ccc(C(=O)NC4CC4)c(Cl)c3)n12 , is 1120
